Source of measurements: ChEMBL document CHEMBL4052645

test: Cmax in mouse at 10 mg/kg, po after 8 hrs; format: ADME, organism-based; design: dose 10 mg/kg, route oral; details: in vivo
Reported Endpoint: Cmax
Answers without a unit are incomplete; give the number and then its unit.

## Task // Cmax lookup, key: "CC1(C)[C@H](Nc2c(C(N)=O)cnn3cc(-c4ccc(F)nc4)cc23)CC[C@]1(C)N"
## Result 300 nM

---

The molecules below have reported IC50 for Tyrosine-protein kinase JAK1 (Homo sapiens).
Answers without a unit are incomplete; give the number and then its unit.

Examples from the recorded data:
>  <Entry Smiles>
CC1(C)[C@H](Nc2c(C(N)=O)cnn3cc(-c4ccccc4Cl)cc23)CC[C@]1(C)N

>  <System Under Test>
Tyrosine-protein kinase JAK1 (Homo sapiens)
Sequence (P23458 whole entry): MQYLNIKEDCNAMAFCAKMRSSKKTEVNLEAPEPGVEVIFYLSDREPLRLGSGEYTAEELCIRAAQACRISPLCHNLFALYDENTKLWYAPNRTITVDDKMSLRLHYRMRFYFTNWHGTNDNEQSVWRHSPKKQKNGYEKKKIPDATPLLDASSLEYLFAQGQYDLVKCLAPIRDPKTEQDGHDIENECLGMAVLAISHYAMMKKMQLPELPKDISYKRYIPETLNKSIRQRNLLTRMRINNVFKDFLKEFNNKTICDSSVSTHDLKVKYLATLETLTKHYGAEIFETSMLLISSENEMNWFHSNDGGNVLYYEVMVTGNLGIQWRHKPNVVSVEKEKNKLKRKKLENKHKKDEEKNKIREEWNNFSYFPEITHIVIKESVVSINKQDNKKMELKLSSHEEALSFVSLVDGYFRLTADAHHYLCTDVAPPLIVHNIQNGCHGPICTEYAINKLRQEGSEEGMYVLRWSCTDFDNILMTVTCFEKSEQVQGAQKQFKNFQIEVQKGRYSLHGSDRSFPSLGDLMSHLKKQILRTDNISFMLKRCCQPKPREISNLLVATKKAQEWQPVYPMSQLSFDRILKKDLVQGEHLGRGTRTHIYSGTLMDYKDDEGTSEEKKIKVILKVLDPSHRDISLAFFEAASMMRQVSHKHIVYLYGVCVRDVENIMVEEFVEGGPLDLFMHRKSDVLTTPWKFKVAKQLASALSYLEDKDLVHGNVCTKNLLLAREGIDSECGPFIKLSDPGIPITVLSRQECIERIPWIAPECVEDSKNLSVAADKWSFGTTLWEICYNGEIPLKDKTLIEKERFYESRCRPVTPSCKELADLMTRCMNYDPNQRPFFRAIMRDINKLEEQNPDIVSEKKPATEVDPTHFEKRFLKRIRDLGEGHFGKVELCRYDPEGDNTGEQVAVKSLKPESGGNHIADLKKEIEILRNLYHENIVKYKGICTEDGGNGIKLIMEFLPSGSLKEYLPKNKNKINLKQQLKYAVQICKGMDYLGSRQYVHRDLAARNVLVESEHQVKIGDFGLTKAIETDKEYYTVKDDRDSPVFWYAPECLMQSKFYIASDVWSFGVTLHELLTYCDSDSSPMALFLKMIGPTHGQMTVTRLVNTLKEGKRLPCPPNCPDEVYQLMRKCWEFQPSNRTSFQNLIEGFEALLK

>  <IC50>
0.8 nM

$$$$
>  <Entry Smiles>
CC1(C)[C@H](Nc2c(C(N)=O)cnn3cc(-c4ccncc4)cc23)CC[C@]1(C)N

>  <System Under Test>
Tyrosine-protein kinase JAK1 (Homo sapiens)

>  <IC50>
4.9 nM

$$$$
>  <Entry Smiles>
CC(C)Oc1ccc(-c2cc3c(N[C@@H]4CC[C@](C)(N)C4(C)C)c(C(N)=O)cnn3c2)cn1

>  <System Under Test>
Tyrosine-protein kinase JAK1 (Homo sapiens)

>  <IC50>
1.2 nM

$$$$
>  <Entry Smiles>
CC1(C)[C@H](Nc2c(C(N)=O)cnn3cc(-c4cc[nH]n4)cc23)CC[C@]1(C)N

>  <System Under Test>
Tyrosine-protein kinase JAK1 (Homo sapiens)

>  <IC50>
1.7 nM

$$$$

## Task # query: IC50 | item "CCOc1ccc(-c2cc3c(N[C@@H]4CC[C@](C)(N)C4(C)C)c(C(N)=O)cnn3c2)cn1" | system: Tyrosine-protein kinase JAK1 (Homo sapiens)
## Result 4 nM

---

target: Non-receptor tyrosine-protein kinase TYK2 (Homo sapiens, UniProt P29597)
Sequence (P29597 whole entry): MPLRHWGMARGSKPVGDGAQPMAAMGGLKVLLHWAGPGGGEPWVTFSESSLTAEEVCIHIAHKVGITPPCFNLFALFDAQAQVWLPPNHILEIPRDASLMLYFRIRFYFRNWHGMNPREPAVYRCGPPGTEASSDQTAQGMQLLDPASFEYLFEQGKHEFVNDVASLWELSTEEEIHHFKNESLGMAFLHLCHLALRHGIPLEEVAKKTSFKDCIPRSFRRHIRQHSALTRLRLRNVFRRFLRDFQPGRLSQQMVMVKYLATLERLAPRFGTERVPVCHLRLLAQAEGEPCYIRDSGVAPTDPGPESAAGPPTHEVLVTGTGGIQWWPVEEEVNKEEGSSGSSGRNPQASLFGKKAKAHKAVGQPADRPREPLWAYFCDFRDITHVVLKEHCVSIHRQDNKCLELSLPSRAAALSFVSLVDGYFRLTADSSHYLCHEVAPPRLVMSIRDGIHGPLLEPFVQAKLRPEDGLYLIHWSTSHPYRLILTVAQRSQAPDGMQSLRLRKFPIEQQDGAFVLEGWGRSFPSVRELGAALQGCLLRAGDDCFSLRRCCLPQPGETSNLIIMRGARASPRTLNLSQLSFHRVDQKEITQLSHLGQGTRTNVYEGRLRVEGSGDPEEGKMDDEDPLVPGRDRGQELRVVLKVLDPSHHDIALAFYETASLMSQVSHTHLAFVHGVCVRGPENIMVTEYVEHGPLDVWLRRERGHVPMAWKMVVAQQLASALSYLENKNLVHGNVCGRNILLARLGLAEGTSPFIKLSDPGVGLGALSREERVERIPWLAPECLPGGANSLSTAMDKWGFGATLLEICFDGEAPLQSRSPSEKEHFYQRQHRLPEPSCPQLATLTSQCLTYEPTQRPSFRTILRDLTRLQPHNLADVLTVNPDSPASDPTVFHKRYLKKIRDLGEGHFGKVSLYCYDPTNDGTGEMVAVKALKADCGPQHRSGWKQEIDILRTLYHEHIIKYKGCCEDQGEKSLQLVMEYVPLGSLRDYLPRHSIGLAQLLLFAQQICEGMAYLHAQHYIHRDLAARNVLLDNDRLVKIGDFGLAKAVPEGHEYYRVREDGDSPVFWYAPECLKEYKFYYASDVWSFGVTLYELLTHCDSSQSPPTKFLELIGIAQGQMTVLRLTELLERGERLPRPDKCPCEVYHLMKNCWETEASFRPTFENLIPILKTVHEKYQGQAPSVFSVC
# true = IC50 below 0.03 µM (exclusive); false = IC50 at/above 0.03 µM

Known results for molecules:
>  <Entry Smiles>
COc1ccccc1-c1cc2c(N[C@@H]3CC[C@](C)(N)C3(C)C)c(C(N)=O)cnn2c1

>  <Category>
true

$$$$
>  <Entry Smiles>
COc1cc(-c2cc3c(N[C@@H]4CC[C@](C)(N)C4(C)C)c(C(N)=O)cnn3c2)ccn1

>  <Category>
false

$$$$
>  <Entry Smiles>
CC1(C)[C@H](Nc2c(C(N)=O)cnn3cc(-c4cccnc4)cc23)CC[C@]1(C)N

>  <Category>
false

$$$$
>  <Entry Smiles>
Cc1ccc(-c2cc3c(N[C@@H]4CC[C@](C)(N)C4(C)C)c(C(N)=O)cnn3c2)cn1

>  <Category>
true

$$$$
>  <Entry Smiles>
CC1(C)[C@H](Nc2c(C(N)=O)cnn3cc(-c4ccccc4)cc23)CC[C@]1(C)N

>  <Category>
true

$$$$
>  <Entry Smiles>
CC1(C)[C@H](Nc2c(C(N)=O)cnn3cc(-c4cccc(C#N)c4)cc23)CC[C@]1(C)N

>  <Category>
false

$$$$
>  <Entry Smiles>
CC1(C)[C@H](Nc2c(C(N)=O)cnn3cc(-c4ccnc(F)c4)cc23)CC[C@]1(C)N

>  <Category>
false

$$$$
>  <Entry Smiles>
CC1(C)[C@H](Nc2c(C(N)=O)cnn3cc(-c4cccc(F)c4)cc23)CC[C@]1(C)N

>  <Category>
true

$$$$
>  <Entry Smiles>
Cc1ccc(-c2cc3c(N[C@@H]4CC[C@](C)(N)C4(C)C)c(C(N)=O)cnn3c2)cc1

>  <Category>
true

$$$$
>  <Entry Smiles>
Cc1cccc(-c2cc3c(N[C@@H]4CC[C@](C)(N)C4(C)C)c(C(N)=O)cnn3c2)c1

>  <Category>
true

$$$$

## Task Just wondering, is IC50 of "COc1ccc(-c2cc3c(N[C@@H]4CC[C@](C)(N)C4(C)C)c(C(N)=O)cnn3c2)cn1" below 0.03 µM?
## Result true

## Task Just wondering, is IC50 of "Cc1cnccc1-c1cc2c(N[C@@H]3CC[C@](C)(N)C3(C)C)c(C(N)=O)cnn2c1" below 0.03 µM?
## Result true

## Task Just wondering, is IC50 of "CC1(C)[C@H](Nc2c(C(N)=O)cnn3cc(-c4ccncc4F)cc23)CC[C@]1(C)N" below 0.03 µM?
## Result false

---

experiment: Drug concentration in mouse at 2 mg/kg, po qd after 24 hrs; assay type: ADME, organism-based; conditions: in vivo, read-out: Drug uptake
Reported Endpoint: concentration at 24 h (nM)
Number only, in nM; omit the unit.

## Task // concentration at 24 h lookup, key: "CC1(C)[C@H](Nc2c(C(N)=O)cnn3cc(-c4ccccc4)cc23)CC[C@]1(C)N"
## Result 60

---

Listing of entries alongside the reported IC50.
target: Tyrosine-protein kinase JAK3 (Homo sapiens, UniProt P52333)
Sequence (P52333 whole entry): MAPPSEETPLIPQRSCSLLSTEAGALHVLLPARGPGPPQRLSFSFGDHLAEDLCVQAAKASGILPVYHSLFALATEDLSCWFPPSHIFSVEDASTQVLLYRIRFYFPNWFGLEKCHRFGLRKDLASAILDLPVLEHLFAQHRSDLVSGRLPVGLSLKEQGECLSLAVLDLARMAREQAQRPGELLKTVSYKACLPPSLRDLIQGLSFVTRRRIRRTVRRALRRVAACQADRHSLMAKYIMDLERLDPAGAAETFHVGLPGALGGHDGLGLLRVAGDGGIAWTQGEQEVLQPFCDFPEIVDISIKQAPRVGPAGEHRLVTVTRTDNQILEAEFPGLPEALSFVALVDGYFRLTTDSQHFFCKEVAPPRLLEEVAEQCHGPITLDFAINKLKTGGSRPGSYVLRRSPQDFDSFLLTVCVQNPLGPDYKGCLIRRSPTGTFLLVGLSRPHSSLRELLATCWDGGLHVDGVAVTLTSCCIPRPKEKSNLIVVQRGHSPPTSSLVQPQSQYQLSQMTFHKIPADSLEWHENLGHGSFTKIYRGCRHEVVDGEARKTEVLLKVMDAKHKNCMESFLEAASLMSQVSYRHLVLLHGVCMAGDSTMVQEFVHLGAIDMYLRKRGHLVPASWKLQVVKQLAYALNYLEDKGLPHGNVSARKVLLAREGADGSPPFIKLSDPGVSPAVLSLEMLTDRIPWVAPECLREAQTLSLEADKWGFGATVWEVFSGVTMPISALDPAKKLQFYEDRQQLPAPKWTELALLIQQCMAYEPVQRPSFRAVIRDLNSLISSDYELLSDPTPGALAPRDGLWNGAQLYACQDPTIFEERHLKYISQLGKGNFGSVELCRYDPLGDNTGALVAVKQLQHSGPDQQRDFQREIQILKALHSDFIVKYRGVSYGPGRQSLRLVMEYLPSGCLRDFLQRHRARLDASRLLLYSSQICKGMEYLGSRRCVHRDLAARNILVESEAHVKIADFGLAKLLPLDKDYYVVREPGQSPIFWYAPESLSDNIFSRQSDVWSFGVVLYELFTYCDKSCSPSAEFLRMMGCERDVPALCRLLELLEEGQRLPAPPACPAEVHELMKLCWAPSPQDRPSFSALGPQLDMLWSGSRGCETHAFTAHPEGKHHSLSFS
Number only, in nM; omit the unit.

>  <Entry Smiles>
CC1(C)[C@H](Nc2c(C(N)=O)cnn3cc(-c4ccccc4F)cc23)CC[C@]1(C)N

>  <Endpoint Unit>
nM

>  <Measurement>
1.5

$$$$

## Task # query: IC50 | item "CC1(C)[C@H](Nc2c(C(N)=O)cnn3cc(-c4cncnc4)cc23)CC[C@]1(C)N" | system: Tyrosine-protein kinase JAK3 (Homo sapiens, UniProt P52333)
## Result 11

---

experiment: AUC in BALB/c mouse at 10 mg/kg, po; type: ADME, organism-based; conditions: in vivo
Reported Endpoint: AUC (µM·h)
Number only, in µM·h; omit the unit.

## Task // AUC lookup, key: "COc1ccc(-c2cc3c(N[C@@H]4CC[C@](C)(N)C4(C)C)c(C(N)=O)cnn3c2)cn1"
## Result 17.9

---

Listing of entries alongside the reported pIC50.
target: Voltage-gated inwardly rectifying potassium channel KCNH2 (Homo sapiens); assay: Inhibition of human ERG by flux-based assay
Sequence (Q12809 whole entry): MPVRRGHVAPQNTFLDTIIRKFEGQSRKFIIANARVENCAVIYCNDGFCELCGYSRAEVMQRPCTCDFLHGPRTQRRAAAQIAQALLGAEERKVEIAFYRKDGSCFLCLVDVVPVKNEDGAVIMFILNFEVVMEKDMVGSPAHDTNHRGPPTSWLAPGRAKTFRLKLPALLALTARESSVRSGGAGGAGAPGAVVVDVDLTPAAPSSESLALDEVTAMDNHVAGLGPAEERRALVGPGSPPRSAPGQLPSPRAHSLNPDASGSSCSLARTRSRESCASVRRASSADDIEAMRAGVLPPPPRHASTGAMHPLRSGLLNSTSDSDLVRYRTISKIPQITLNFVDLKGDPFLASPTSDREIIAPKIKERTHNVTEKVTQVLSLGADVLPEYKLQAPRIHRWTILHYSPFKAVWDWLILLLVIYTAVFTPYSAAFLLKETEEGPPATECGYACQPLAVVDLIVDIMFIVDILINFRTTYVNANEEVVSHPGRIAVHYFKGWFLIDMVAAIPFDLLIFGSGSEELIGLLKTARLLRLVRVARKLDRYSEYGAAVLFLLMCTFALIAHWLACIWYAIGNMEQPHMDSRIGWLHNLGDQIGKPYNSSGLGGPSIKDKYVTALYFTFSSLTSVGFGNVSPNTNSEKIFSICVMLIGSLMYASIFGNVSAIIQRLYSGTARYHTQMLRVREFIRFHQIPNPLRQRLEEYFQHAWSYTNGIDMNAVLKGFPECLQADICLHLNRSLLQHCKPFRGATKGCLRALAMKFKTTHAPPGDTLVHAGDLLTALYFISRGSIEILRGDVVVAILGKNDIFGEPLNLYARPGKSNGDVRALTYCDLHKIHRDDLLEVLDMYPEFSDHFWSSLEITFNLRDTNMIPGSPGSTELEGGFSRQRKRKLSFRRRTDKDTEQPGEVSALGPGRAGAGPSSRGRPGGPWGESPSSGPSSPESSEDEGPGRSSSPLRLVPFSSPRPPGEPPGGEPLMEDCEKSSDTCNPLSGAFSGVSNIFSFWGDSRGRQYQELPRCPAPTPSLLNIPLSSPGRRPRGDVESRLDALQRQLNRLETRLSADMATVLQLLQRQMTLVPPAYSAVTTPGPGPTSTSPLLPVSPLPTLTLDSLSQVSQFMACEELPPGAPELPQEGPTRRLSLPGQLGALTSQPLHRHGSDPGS
pIC50: −log10 of the molar value.

>  <Entry Smiles>
COc1ccc(-c2cc3c(N[C@@H]4CC[C@](C)(N)C4(C)C)c(C(N)=O)cnn3c2)cn1

>  <pIC50>
< 4.10

$$$$
>  <Entry Smiles>
CC1(C)[C@H](Nc2c(C(N)=O)cnn3cc(-c4ccncc4F)cc23)CC[C@]1(C)N

>  <pIC50>
< 4.10

$$$$

Next item in the queue.
## Task // pIC50 lookup, key: "Cc1cnccc1-c1cc2c(N[C@@H]3CC[C@](C)(N)C3(C)C)c(C(N)=O)cnn2c1"
## Result < 4.10

---

biological target: JAK3/JAK1 (Homo sapiens, UniProt P23458+P52333); assay: Inhibition of JAK1/JAK3 in human whole blood assessed as reduction in IL-2 induced IFN-gamma production after 18 hrs by ELISA
Sequence (P52333 whole entry, one chain of several): as the sequence (P52333 whole entry) above
Reported Endpoint: pIC50
pIC50 is a log-scale quantity: -log10 of the concentration expressed in molar.

Examples from the recorded data:
>  <Entry Smiles>
CC1(C)[C@H](Nc2c(C(N)=O)cnn3cc(-c4cccc(Cl)c4)cc23)CC[C@]1(C)N

>  <pIC50>
6.11

$$$$
>  <Entry Smiles>
CC1(C)[C@H](Nc2c(C(N)=O)cnn3cc(-c4ccccc4C#N)cc23)CC[C@]1(C)N

>  <pIC50>
6.30

$$$$
>  <Entry Smiles>
COc1ccc(-c2cc3c(N[C@@H]4CC[C@](C)(N)C4(C)C)c(C(N)=O)cnn3c2)cc1

>  <pIC50>
6.77

$$$$

## Task // pIC50 lookup, key: "CC1(C)[C@H](Nc2c(C(N)=O)cnn3cc(-c4ccc(F)cc4)cc23)CC[C@]1(C)N"
## Result 6.38

## Task // pIC50 lookup, key: "Cc1ccncc1-c1cc2c(N[C@@H]3CC[C@](C)(N)C3(C)C)c(C(N)=O)cnn2c1"
## Result 7.01

## Task // pIC50 lookup, key: "CC1(C)[C@H](Nc2c(C(N)=O)cnn3cc(-c4ccnc(F)c4)cc23)CC[C@]1(C)N"
## Result 6.57

## Task // pIC50 lookup, key: "CC1(C)[C@H](Nc2c(C(N)=O)cnn3cc(-c4ccc(F)nc4)cc23)CC[C@]1(C)N"
## Result 7.00

## Task // pIC50 lookup, key: "Cc1cccc(-c2cc3c(N[C@@H]4CC[C@](C)(N)C4(C)C)c(C(N)=O)cnn3c2)c1"
## Result 6.15

---

Listing of entries alongside the reported pIC50.
molecular target: Tyrosine-protein kinase JAK3 (Homo sapiens, UniProt P52333); test: Inhibition of JAK3 (unknown origin) using CSKtide as substrate after 30 mins in presence of [gamma33P]ATP by liquid scintillation counting method
pIC50 is a log-scale quantity: -log10 of the concentration expressed in molar.

Examples from the recorded data:
>  <Entry Smiles>
CC1(C)[C@H](Nc2c(C(N)=O)cnn3cc(-c4ccncc4F)cc23)CC[C@]1(C)N

>  <pIC50>
8.34

$$$$
>  <Entry Smiles>
COc1ccc(-c2cc3c(N[C@@H]4CC[C@](C)(N)C4(C)C)c(C(N)=O)cnn3c2)cc1

>  <pIC50>
8.82

$$$$

## Task # query: pIC50 | item "Cc1cc(-c2cc3c(N[C@@H]4CC[C@](C)(N)C4(C)C)c(C(N)=O)cnn3c2)ccn1" | system: Tyrosine-protein kinase JAK3 (Homo sapiens, UniProt P52333)
## Result 9.22
